This collection of values is drawn from paper PMC7356228.

test system: SCC-15 cells; experiment: Tetrazolium salts reduction (XTT) assay; type: cell-based, human; conditions: Homo sapiens, SCC-15
QUANTITY_NAME: IC50 (µM)
Give the value, in units of µM, as a plain number.

What reported IC50 corresponds to C=CC(C)(C)c1c(O)cc2oc3c(O)c(O)cc(CC=C(C)C)c3c(=O)c2c1O on SCC-15 cells? 17

* * *

target: UniProt Q9Y052; assay: Inhibition of TS-catalyzed reaction (tritium release from [5-3H]dUMP); assay type: biochemical, C. elegans; details: 20 µM dUMP, 50 µM meTHF; read-out: IC50 Assessment
Sequence (Q9Y052 1-315): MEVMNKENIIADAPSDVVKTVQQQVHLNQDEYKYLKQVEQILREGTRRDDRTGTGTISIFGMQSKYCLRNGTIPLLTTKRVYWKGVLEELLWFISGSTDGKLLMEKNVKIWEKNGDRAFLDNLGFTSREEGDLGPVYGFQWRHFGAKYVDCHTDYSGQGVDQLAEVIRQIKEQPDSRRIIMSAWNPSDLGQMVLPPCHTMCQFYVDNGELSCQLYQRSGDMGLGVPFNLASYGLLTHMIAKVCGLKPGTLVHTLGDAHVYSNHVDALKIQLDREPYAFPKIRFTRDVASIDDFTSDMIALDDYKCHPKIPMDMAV
QUANTITY_NAME: IC50

>>> experimental_value("COc1ccc2oc3cccc(O)c3c(=O)c2c1")
"> 1000 µM"

# next compound below
// IC50 lookup, key: CC1Oc2c(c3c(c4oc5c(O)c(O)ccc5c(=O)c24)C(C)(C)C(C)O3)C1(C)C (centres unmarked) > 100 µM

* * *

Quick reference for remaining activity at 1000 µM among some compounds
molecular target: hTS (Homo sapiens, UniProt P04818); construct: made in house; assay: Inhibition of TS-catalyzed reaction (tritium release from [5-3H]dUMP); type: biochemical; settings: compound 1000 µM; 20 µM dUMP, 250 µM meTHF; read-out: % Remaining Activity
Sequence (P04818 whole entry): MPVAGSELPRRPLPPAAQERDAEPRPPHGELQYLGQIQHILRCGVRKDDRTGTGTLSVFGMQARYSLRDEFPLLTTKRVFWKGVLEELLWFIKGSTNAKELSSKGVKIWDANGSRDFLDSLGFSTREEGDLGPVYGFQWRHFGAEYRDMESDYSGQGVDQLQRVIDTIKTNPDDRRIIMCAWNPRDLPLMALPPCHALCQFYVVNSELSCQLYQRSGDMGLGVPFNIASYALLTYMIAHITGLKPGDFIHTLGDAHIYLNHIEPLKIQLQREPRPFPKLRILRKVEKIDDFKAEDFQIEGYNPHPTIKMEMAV

>>> experimental_value("COc1c(O)cc2oc(-c3ccccc3)c(O)c(=O)c2c1O [Alnusin (12), Alnusin]")
"30%"
>>> experimental_value("COc1cc(/C=C/C(=O)O[C@H]2[C@H](O[C@@H]3O[C@@H](C)[C@H](O)[C@@H](O)[C@H]3O)[C@@H](O)[C@H](OCCc3ccc(O)c(O)c3)O[C@@H]2CO)ccc1O [Leucosceptoside A (13), Leucosceptoside A]")
"66%"
>>> experimental_value("O=C(CCc1ccc(O)cc1)c1c(O)cc(O)cc1O [Phloretin (4), Phloretin]")
"31%"
>>> experimental_value("O=C(OCC1=C[C@@H](O)[C@@H]2C=CO[C@@H](O[C@@H]3O[C@H](CO)[C@@H](O)[C@H](O)[C@H]3O)[C@H]12)c1ccc(O)cc1 [Agnuside (8), Agnuside]")
"47%"
>>> experimental_value("CC(C)=CCc1c(O)ccc2c1OC(c1ccccc1)CC2=O (racemic) [(±)-7-Hydro-xy-8-C-prenyl flavanone]")
"7%"
>>> experimental_value("O=C1c2c(O)cccc2C([C@@H]2O[C@H](CO)[C@@H](O)[C@H](O)[C@H]2O)c2cc(CO)cc(O)c21 (stereo partly drawn) [Aloin (2), Aloin]")
"49%"
>>> experimental_value("COc1c(C2(O)COc3cc(O)cc(O)c3C2=O)ccc2c1C=CC(C)(C)O2 (stereo not drawn) [Sophoronol (5), Sophoronol]")
"8%"
>>> experimental_value("O=C(/C=C/c1ccc(O)c(O)c1)O[C@@H]1C[C@](O)(C(=O)O)C[C@@H](O)[C@H]1O [Chlorogenic acid (3), Chlorogenic acid]")
"76%"

# next compound below
// remaining activity at 1000 µM lookup, key: CC12CCC3C(C1)c1c(cc(O)c(C(=O)c4ccccc4)c1OC3(C)C)O2 (stereo not drawn) [Clusiacitran A (9), Clusiacitran A] 47%
